Data origin, for the record: the supplement of paper PMC11061612

- Tested on: TGBC24TKB (Biliary Tract Carcinoma)
- assay.protocol: Bliss excess, mean over the matrix (fraction); higher = more synergy
Quick reference for Bliss excess among some compounds
Please reply with the value in numeric form only.

Would you please look over these solved cases?
Data request: Can you look up Bliss excess on TGBC24TKB (Biliary Tract Carcinoma) for CN(CCO)CC[C@H](CSc1ccccc1)Nc1ccc(S(=O)(=O)NC(=O)c2ccc(N3CCC([C@@H](O)c4ccccc4-c4ccc(Cl)cc4)CC3)cc2)cc1S(=O)(=O)C(F)(F)F [AZD4320] + C=CCn1c(=O)c2cnc(Nc3ccc(N4CCN(C)CC4)cc3)nc2n1-c1cccc(C(C)(C)O)n1 [AZD1775] (first compound max 1 µM, partner max 1 µM) ?
Data returned: -0.0323

Data request: Can you check Cn1cnc2c(F)c(Nc3ccc(Br)cc3Cl)c(C(=O)NOCCO)cc21 [Selumetinib] + C=CCn1c(=O)c2cnc(Nc3ccc(N4CCN(C)CC4)cc3)nc2n1-c1cccc(C(C)(C)O)n1 [AZD1775] (first compound max 10 µM, partner max 1 µM) next?
Data returned: -0.0027

Then this compound:
Data request: API: value(readout=Bliss excess, system=TGBC24TKB (Biliary Tract Carcinoma)) for record CC1(C)CCC(CN2CCN(c3ccc(C(=O)NS(=O)(=O)c4ccc(NCC5CCOCC5)c([N+](=O)[O-])c4)c(Oc4cnc5[nH]ccc5c4)c3)CC2)=C(c2ccc(Cl)cc2)C1 [Venetoclax] + C=CCn1c(=O)c2cnc(Nc3ccc(N4CCN(C)CC4)cc3)nc2n1-c1cccc(C(C)(C)O)n1 [AZD1775] (first compound max 1 µM, partner max 1 µM)
Data returned: -0.0108

====

Recorded Bliss excess for the following compounds
- Tested on: IGR-1 (Melanoma)
- assay.protocol: Bliss excess, mean over the matrix (fraction); higher = more synergy

For orientation, consider the following solved cases.
Data request: What value of Bliss excess has been recorded for this entry: CC(=O)c1c(C)c2cnc(Nc3ccc(N4CCNCC4)cn3)nc2n(C2CCCC2)c1=O [Palbociclib] + Cn1cnc2c(F)c(Nc3ccc(Br)cc3Cl)c(C(=O)NOCCO)cc21 [Selumetinib] (first compound max 10 µM, 7x7, partner max 10 µM)
Data returned: 0.0661

Data request: One more compound: Cc1c2c(nn1C)CSCc1cc(n(C)n1)CSc1cc(c3ccccc3c1)OCCCc1c(C(=O)O)n(C)c3c-2c(Cl)ccc13 [AZD5991] + CC1(C)CCC(CN2CCN(c3ccc(C(=O)NS(=O)(=O)c4ccc(NCC5CCOCC5)c([N+](=O)[O-])c4)c(Oc4cnc5[nH]ccc5c4)c3)CC2)=C(c2ccc(Cl)cc2)C1 [Venetoclax] (first compound max 1 µM, 7x7, partner max 1 µM)
Data returned: 0.2

Query compound follows.
Data request: Which value of Bliss excess has been reported for Cc1c2c(nn1C)CSCc1cc(n(C)n1)CSc1cc(c3ccccc3c1)OCCCc1c(C(=O)O)n(C)c3c-2c(Cl)ccc13 [AZD5991] + C[C@@H]1COCCN1C2=NC(=NC(=C2)C3(CC3)[S@](=N)(=O)C)C4=C5C=CNC5=NC=C4 [AZD6738] (first compound max 1 µM, 7x7, partner max 10 µM) in the records?
Data returned: 0.105

====

- Test system: SN12C (Kidney Carcinoma)
- assay.protocol: combination Emax (second highest fraction inhibited in the dose matrix, 72 h); higher = more inhibition; extreme values may be limits of the assay
Would you please tag the item criterion met when its combination Emax is 0.3 or above, and criterion not met when it is below?

Data request: combination Emax >= 0.3 for COc1nnc2ccc(N3CCC(c4ccc(OCCN5CCN(C)C(=O)[C@H]5C)cc4)CC3)nn12 [AZD5153] + C[C@@H]1COCCN1C2=NC(=NC(=C2)C3(CC3)[S@](=N)(=O)C)C4=C5C=CNC5=NC=C4 [AZD6738] (first compound max 1 µM, 7x7, partner max 10 µM) ?
Data returned: criterion not met

---
Data request: combination Emax >= 0.3 for CC1(C)CCC(CN2CCN(c3ccc(C(=O)NS(=O)(=O)c4ccc(NCC5CCOCC5)c([N+](=O)[O-])c4)c(Oc4cnc5[nH]ccc5c4)c3)CC2)=C(c2ccc(Cl)cc2)C1 [Venetoclax] + Cn1cnc2c(F)c(Nc3ccc(Br)cc3Cl)c(C(=O)NOCCO)cc21 [Selumetinib] (first compound max 1 µM, 7x7, partner max 3 µM) ?
Data returned: criterion not met

Data request: Repeat for the following molecule: CN(CCO)CC[C@H](CSc1ccccc1)Nc1ccc(S(=O)(=O)NC(=O)c2ccc(N3CCC([C@@H](O)c4ccccc4-c4ccc(Cl)cc4)CC3)cc2)cc1S(=O)(=O)C(F)(F)F [AZD4320] + Cn1cnc2c(F)c(Nc3ccc(Br)cc3Cl)c(C(=O)NOCCO)cc21 [Selumetinib] (first compound max 1 µM, 7x7, partner max 3 µM)
Data returned: criterion met

====

- Tested on: NCI-H1781 (Lung Adenocarcinoma)
- assay.protocol: Bliss excess, mean over the matrix (fraction); higher = more synergy
attribute.measured: Bliss excess
Field format: numeric only.

Data request: What value of Bliss excess has been recorded for this entry: CN(CCO)CC[C@H](CSc1ccccc1)Nc1ccc(S(=O)(=O)NC(=O)c2ccc(N3CCC([C@@H](O)c4ccccc4-c4ccc(Cl)cc4)CC3)cc2)cc1S(=O)(=O)C(F)(F)F [AZD4320] + C[C@@H](Nc1cc(F)cc(F)c1)c1cc(C(=O)N(C)C)cc2c(=O)cc(N3CCOCC3)oc12 [AZD8186] (first compound max 1 µM, 7x7, partner max 3 µM)
Data returned: 0.0358

Data request: Next entry: COc1nnc2ccc(N3CCC(c4ccc(OCCN5CCN(C)C(=O)[C@H]5C)cc4)CC3)nn12 [AZD5153] + Cc1c2c(nn1C)CSCc1cc(n(C)n1)CSc1cc(c3ccccc3c1)OCCCc1c(C(=O)O)n(C)c3c-2c(Cl)ccc13 [AZD5991] (first compound max 1 µM, 7x7, partner max 1 µM)
Data returned: 0.0028

Please examine the following record next.
Data request: Returns the measured Bliss excess for the input compound. Input: Cn1cnc2c(F)c(Nc3ccc(Br)cc3Cl)c(C(=O)NOCCO)cc21 [Selumetinib] + C=CCn1c(=O)c2cnc(Nc3ccc(N4CCN(C)CC4)cc3)nc2n1-c1cccc(C(C)(C)O)n1 [AZD1775] (first compound max 10 µM, partner max 1 µM)
Data returned: -0.063

====

- Test system: SNU-C5 (Colorectal Carcinoma)
- assay.protocol: Bliss excess, mean over the matrix (fraction); higher = more synergy
Below, each entry is listed alongside its reported Bliss excess.

Data request: Recorded Bliss excess for CN(CCO)CC[C@H](CSc1ccccc1)Nc1ccc(S(=O)(=O)NC(=O)c2ccc(N3CCC([C@@H](O)c4ccccc4-c4ccc(Cl)cc4)CC3)cc2)cc1S(=O)(=O)C(F)(F)F [AZD4320] + C=CCn1c(=O)c2cnc(Nc3ccc(N4CCN(C)CC4)cc3)nc2n1-c1cccc(C(C)(C)O)n1 [AZD1775] (first compound max 1 µM, partner max 1 µM) with SNU-C5 (Colorectal Carcinoma), please?
Data returned: -0.0062

More entries:
Data request: State its Bliss excess on SNU-C5 (Colorectal Carcinoma): CC(=O)c1c(C)c2cnc(Nc3ccc(N4CCNCC4)cn3)nc2n(C2CCCC2)c1=O [Palbociclib] + Cc1c2c(nn1C)CSCc1cc(n(C)n1)CSc1cc(c3ccccc3c1)OCCCc1c(C(=O)O)n(C)c3c-2c(Cl)ccc13 [AZD5991] (first compound max 10 µM, 7x7, partner max 1 µM)
Data returned: -0.0377

Data request: Input Cc1nc(Nc2ncc(C(=O)Nc3c(C)cccc3Cl)s2)cc(N2CCN(CCO)CC2)n1 [Dasatinib] + CC(=O)Nc1cccc(-n2c(=O)n(C3CC3)c(=O)c3c(Nc4ccc(I)cc4F)n(C)c(=O)c(C)c32)c1 [Trametinib] (first compound max 2 µM, 7x7, partner max 1 µM)
Data returned: -0.013

====

- Test system: HPAC (Pancreatic Carcinoma)
- assay.protocol: Bliss excess, mean over the matrix (fraction); higher = more synergy
Outcome: 1.0 for Bliss excess of at least -0.06; 0.0 for anything lower.

Use these answered entries as a reference point.
Data request: Could you please find out whether NC1(C(=O)N[C@@H](CCO)c2ccc(Cl)cc2)CCN(c2ncnc3[nH]ccc23)CC1 [Capivasertib] + CC(C)n1c(=O)n(C)c2cnc3cc(F)c(-c4ccc(OCCCN5CCCCC5)nc4)cc3c21 [AZD1390] (first compound max 10 µM, 7x7, partner max 0.3 µM) has Bliss excess that meets -0.06 or exceeds it?
Data returned: 0.0

Data request: Queued: CN(C)CCCOc1ccc(-c2ccc3ncc4c(c3c2)n(C2CCOCC2)c(=O)n4C)cn1 [AZD0156] + CCN(CCO)CCCOc1ccc2c(Nc3cc(CC(=O)Nc4cccc(F)c4)[nH]n3)ncnc2c1 [AZD2811] (first compound max 1 µM, 7x7, partner max 1 µM)
Data returned: 1.0

Data request: What about CN(CCO)CC[C@H](CSc1ccccc1)Nc1ccc(S(=O)(=O)NC(=O)c2ccc(N3CCC([C@@H](O)c4ccccc4-c4ccc(Cl)cc4)CC3)cc2)cc1S(=O)(=O)C(F)(F)F [AZD4320] + CN(C)CCCOc1ccc(-c2ccc3ncc4c(c3c2)n(C2CCOCC2)c(=O)n4C)cn1 [AZD0156] (first compound max 1 µM, 7x7, partner max 1 µM) ?
Data returned: 0.0

Data request: Another compound to check: COc1cccc(OCCCN)c1-c1cc(Nc2cnc(C#N)cn2)n[nH]1 [Prexasertib] + C=CCn1c(=O)c2cnc(Nc3ccc(N4CCN(C)CC4)cc3)nc2n1-c1cccc(C(C)(C)O)n1 [AZD1775] (first compound max 1 µM, partner max 1 µM)
Data returned: 1.0

Next:
Data request: Item CN(CCO)CC[C@H](CSc1ccccc1)Nc1ccc(S(=O)(=O)NC(=O)c2ccc(N3CCC([C@@H](O)c4ccccc4-c4ccc(Cl)cc4)CC3)cc2)cc1S(=O)(=O)C(F)(F)F [AZD4320] + C1CN(CCC1(C(=O)N[C@@H](CCO)C2=CC=C(C=C2)Cl)N)C3=NC=NC4=C3C=CN4 [Capivasertib] (first compound max 1 µM, 7x7, partner max 3 µM) with Bliss excess of -0.06 or above?
Data returned: 1.0

Data request: Now try CN(CCO)CC[C@H](CSc1ccccc1)Nc1ccc(S(=O)(=O)NC(=O)c2ccc(N3CCC([C@@H](O)c4ccccc4-c4ccc(Cl)cc4)CC3)cc2)cc1S(=O)(=O)C(F)(F)F [AZD4320] + C[C@@H](Nc1cc(F)cc(F)c1)c1cc(C(=O)N(C)C)cc2c(=O)cc(N3CCOCC3)oc12 [AZD8186] (first compound max 1 µM, 7x7, partner max 3 µM) .
Data returned: 1.0
